Recorded inhibition at 20 µM values for a group of molecules are listed next.
- target_desc: KRas G12D mutant (Homo sapiens, UniProt P01116, G12D)
- Construct: fused on or other part: His tag, used for capture on nickel-coated plates
- assay_remarks: Ras GTP binding domain inhibition assay (Cy3-GTP/Cy5-GTP competition)
- test_settings: 20 μM; without SOS (Table 7A); read-out: KRas G12D mutant: % inh.

CO[C@H]1C[C@@H](Nc2nc(-c3nccn3C)nc3sc(-c4cnn(C)c4)c(-c4ccccc4)c23)C1 [drawing 892] | 51 to 75%

I would be grateful if you could share the reported inhibition at 20 µM for COC1CCN(C(=O)c2sc3nc(-c4nccn4C)nc(N[C@H]4C[C@@H](OC)C4)c3c2-c2ccccc2)C1 (stereo partly drawn) [drawing 923] .
51 to 75%

I would be grateful if you could share the reported inhibition at 20 µM for CO[C@H]1C[C@@H](Nc2nc(-c3ncc[nH]3)nc3sc(-c4ccn(C)n4)c(-c4ccccc4)c23)C1 [drawing 910] .
26 to 50%

I would be grateful if you could share the reported inhibition at 20 µM for CO[C@H]1CC[C@@H](Nc2nc(-c3nccn3C)nc3sc(-c4ccn(C(C)C)n4)c(-c4ccccc4)c23)C1 [drawing 912] .
51 to 75%

I would be grateful if you could share the reported inhibition at 20 µM for CO[C@H]1CC[C@@H](Nc2nc(-c3nccn3C)nc3sc(C(=O)N4CCCC4)c(-c4ccccc4)c23)C1 [drawing 926] .
51 to 75%

I would be grateful if you could share the reported inhibition at 20 µM for CO[C@H]1C[C@H](Nc2nc(-c3nccn3C)nc3sc(-c4ccn(C)n4)c(-c4ccccc4)c23)C1 [drawing 906] .
26 to 50%

###

Recorded inhibition at 20 µM values for a group of compounds are listed next.
- target_desc: KRas G12D mutant (Homo sapiens, UniProt P01116, G12D)
- Construct: fused on or other part: His tag, used for capture on nickel-coated plates
- assay_remarks: Ras GTP binding domain inhibition assay (Cy3-GTP/Cy5-GTP competition)
- test_settings: 20 μM; with SOS; read-out: KRas G-12D mutant + SOS: % inh.

Examples with answers:
COC1CCN(c2nc(-c3nccn3C)nc3sc(-c4ccn(C)n4)c(-c4ccccc4)c23)C1 (centres unmarked) [drawing 863] | 1 to 25%
Cc1cc(Cn2ccnc2-c2nc(O)c3scc(-c4ccccn4)c3n2)on1 [drawing 846] | 26 to 50%
COc1c(O)nc(-c2ccccn2)nc1Oc1ccccc1 [drawing 813] | 26 to 50%
COCCNc1nc(-c2nccn2C)nc2sc(-c3cccc(OC)c3Cl)c(-c3ccccc3)c12 [drawing 872] | 76 to 100%

Proceeding to the next compound to report its inhibition at 20 µM.
I would be grateful if you could share the reported inhibition at 20 µM for CO[C@@H]1CCC(Nc2nc(-c3nccn3C)nc3sc(-c4ccn(C)n4)c(-c4ccccc4)c23)C1 (some centres unmarked) [drawing 859] .
26 to 50%

###

- target_desc: Rac-1 (Homo sapiens)
- assay_remarks: Ras GTP binding domain inhibition assay (Cy3-GTP/Cy5-GTP competition)
- test_settings: without SOS, read-out: Rac-1: % inh.
Recorded inhibition at 20 µM values for a group of compounds are listed next.

Examples with answers:
CC(C)CN(C)C(=O)c1nc(-c2ccccn2)nc(O)c1O [drawing 933] | 51 to 75%
Cn1ccc(-c2sc3nc(-c4nccn4C)nc(N4CCC5(CCOC5)C4)c3c2-c2ccccc2)n1 (centres unmarked) [drawing 992] | 26 to 50%
COc1nc(-c2ccccn2)nc(Nc2cnn(C)c2)c1OC [drawing 929] | 1 to 25%
CC(C)COc1ccc(-c2csc3c(O)nc(-c4nccn4Cc4ccccn4)nc23)cn1 [drawing 1034] | 76 to 100%
COCCNC(=O)c1sc2nc(-c3nccn3C)nc(N[C@H]3C[C@@H](OC)C3)c2c1-c1ccccc1 [drawing 1056] | 51 to 75%

I would be grateful if you could share the reported inhibition at 20 µM for COCCCNc1nc(-c2nccn2C)nc2sc(-c3ccn(C)n3)c(-c3ccccc3)c12 [drawing 1001] .
1 to 25%

I would be grateful if you could share the reported inhibition at 20 µM for COC1CCN(c2nc(-c3nccn3C)nc3sc(-c4cccnc4)c(-c4ccccc4)c23)C1 (centres unmarked) [drawing 979] .
76 to 100%

I would be grateful if you could share the reported inhibition at 20 µM for Cn1ccnc1-c1nc(O)c(O)c(C(=O)NC2CCC2)n1 [drawing 960] .
76 to 100%

I would be grateful if you could share the reported inhibition at 20 µM for COCCNc1nc(-c2nccn2C)nc2sc(-c3cc(OC)ccc3Cl)c(-c3ccccc3)c12 [drawing 1006] .
1 to 25%

###

- Test system: KRas Q61H mutant
- assay_remarks: Ras GTP binding domain inhibition assay (Cy3-GTP/Cy5-GTP competition)
- Design: species or system human
- test_settings: 20 μM; without SOS (Table 7A)
readout: KRas Q61H mutant: % inh.

Examples with answers:
COC1CCN(c2nc(-c3nccn3C)nc3sc(-c4cccc(O)c4F)c(-c4ccccc4)c23)C1 (centres unmarked) [drawing 890] | B (26-50% inhibition)
CO[C@H]1C[C@@H](Nc2nc(-c3nccn3C)nc3sc(C(=O)N4CCOCC4)c(-c4ccccc4)c23)C1 [drawing 922] | D (76-100% inhibition)
COc1nc(-c2ccccn2)nc2c(-c3ccccn3)csc12 [drawing 913] | B (26-50% inhibition)
COc1cccc(-c2sc3nc(-c4nccn4C)nc(N[C@H]4C[C@@H](OC)C4)c3c2-c2ccccc2)c1F [drawing 891] | D (76-100% inhibition)
COCCNC(=O)c1sc2nc(-c3nccn3C)nc(N[C@@H]3CC[C@H](OC)C3)c2c1-c1ccccc1 [drawing 925] | D (76-100% inhibition)

I would be grateful if you could share the reported KRas Q61H mutant: % inh. for COCCn1ccnc1-c1nc(O)c2scc(-c3ccc(OCC(C)C)nc3)c2n1 [drawing 898] .
D (76-100% inhibition)

###

- System: KRas wild type
- assay_remarks: Ras GTP binding domain inhibition assay (Cy3-GTP/Cy5-GTP competition)
- Set-up: species or system human
- test_settings: 20 μM; with SOS
readout: KRas wild type + SOS: % inh.

Examples with answers:
COc1cccc(-c2sc3nc(-c4nccn4C)nc(N4CCC(OC)C4)c3c2-c2ccccc2)c1F.Cl (stereo not drawn) [drawing 838] | D (76-100% inhibition)
O=C(c1nc(-c2ccccn2)nc(O)c1O)N1CCc2ccccc2C1 [drawing 832] | B (26-50% inhibition)
Cn1ccnc1-c1nc(O)c2scc(-c3ccccn3)c2n1 [drawing 853] | C (51-75% inhibition)
COC1CCN(c2nc(-c3nccn3C)nc3sc(-c4cnc(C5CC5)o4)c(-c4ccccc4)c23)C1.Cl (stereo not drawn) | C (51-75% inhibition)
COCC(C)Nc1nc(-c2nccn2C)nc2sc(-c3ccccc3Cl)c(-c3cscn3)c12 (stereo not drawn) [drawing 854] | D (76-100% inhibition)

I would be grateful if you could share the reported KRas wild type + SOS: % inh. for Oc1nc(-c2cn(-c3ccccc3)cn2)nc2c(-c3ccccn3)csc12 [drawing 847] .
A (1-25% inhibition)

I would be grateful if you could share the reported KRas wild type + SOS: % inh. for CC(C)CNC(=O)c1nc(-c2ccccn2)nc(O)c1O [drawing 811] .
A (1-25% inhibition)

I would be grateful if you could share the reported KRas wild type + SOS: % inh. for COC1CCN(c2nc(-c3nccn3C)nc3sc(Br)c(-c4ccccc4)c23)C1 (stereo not drawn) [drawing 822] .
D (76-100% inhibition)

I would be grateful if you could share the reported KRas wild type + SOS: % inh. for COCCN(C)C(=O)c1nc(-c2ccccn2)nc(O)c1O [drawing 810] .
A (1-25% inhibition)

I would be grateful if you could share the reported KRas wild type + SOS: % inh. for COC1CCN(c2nc(-c3nccn3C)nc3sc(-c4ccc(N)nc4C)c(-c4ccccc4)c23)C1.Cl (stereo not drawn) .
A (1-25% inhibition)

I would be grateful if you could share the reported KRas wild type + SOS: % inh. for Cn1ccnc1-c1nc(O)c(O)c(C(=O)N2CCCCC2)n1 [drawing 826] .
A (1-25% inhibition)

I would be grateful if you could share the reported KRas wild type + SOS: % inh. for COc1ccc(-c2c(-c3cccc(OC)c3F)sc3nc(-c4nccn4C)nc(N4CCC(OC)C4)c23)cc1 (stereo not drawn) [drawing 806] .
D (76-100% inhibition)

I would be grateful if you could share the reported KRas wild type + SOS: % inh. for COCC(C)Nc1nc(-c2nccn2C)nc2sc(-c3cccc(OC)c3)c(-c3cscn3)c12 (stereo not drawn) [drawing 855] .
D (76-100% inhibition)
